Entries and their measured growth inhibition follow.
experiment: OD615 S. cerevisiae growth inhibition, permissive medium, pilot counter-assay, permissive growth control for S. cerevisiae lifespan shortening project (AID 705); conditions: OD615, 24 h, at 10 µM, hits give high values
Write down the numeric answer in % and omit the unit.

Consider the reported growth inhibition for these molecules:
[
  {
    "molecule": "CC(C)N(CCc1ccncc1)C(=O)Nc1ccc(F)cc1",
    "observed.value": 0.1
  },
  {
    "molecule": "Cc1ccc(S(=O)(=O)NCC(=O)N2CCOCC2)cc1",
    "observed.value": -3.62
  },
  {
    "molecule": "CCN(CC)CCCN1C(=O)C(O)=C(C(C)=O)C1c1ccc(OC)cc1OC (stereo unspecified)",
    "observed.value": -0.68
  },
  {
    "molecule": "CNC(=O)c1c[nH]n2c(=O)c(Cc3ccccc3F)c(C)nc12",
    "observed.value": -2.95
  },
  {
    "molecule": "CCC(=O)Nc1cccc(-c2nnc(SCC(=O)c3ccccc3)n2C)c1",
    "observed.value": 0.325
  }
]

Briefly, growth inhibition measured for CCN(CC)CCN1C(=O)c2ccccc2NC1c1cccc(F)c1 (stereo unspecified) : -8.46
